Recorded values, source paper PMC8983201.

The entries below are paired with their reported IC50.
Test system: MaMel-80a (BRAF-V600E homozygous mutant melanoma)
Experiment: RRA cytotoxicity, MaMel-80a
Type: cell-based
Conditions: Homo sapiens, compounds

# COMPOUND, IC50
rows = [
    ("C[C@@H]1CC[C@@]2(OC1)O[C@H]1C[C@H]3[C@@H]4CC=C5C[C@@H](O[C@@H]6O[C@H](CO)[C@@H](O)[C@H](O)[C@H]6O)CC[C@]5(C)[C@H]4CC[C@]3(C)[C@H]1[C@@H]2C [Compound 6, diosgenin-3-O-β-D-glucopyranoside]", "> 100 µM"),
    ("COc1cccc2c1C(=O)c1c(O)c3c(c(O)c1C2=O)C[C@@](O)(C(=O)CO)C[C@@H]3O[C@H]1C[C@H](N)[C@H](O)[C@H](C)O1 [Doxorubicin, reference compound]", "8.66 µM"),
    ("C[C@@H]1CC[C@@]2(OC1)O[C@H]1C[C@H]3[C@@H]4CC=C5C[C@@H](O)CC[C@]5(C)[C@H]4CC[C@]3(C)[C@H]1[C@@H]2C [Compound 5, diosgenin]", "> 100 µM"),
]

====

System: MDA-MB-231-BCRP clone 23 cells
Assay: RRA cytotoxicity, MDA-MB-231-BCRP
Assay type: cell-based
Conditions: Homo sapiens, doxorubicin
ASSAY METRIC: IC50 (nM)

# COMPOUND, ASSAY METRIC, MEAS VALUE
measured = [
    ("COc1cccc2c1C(=O)c1c(O)c3c(c(O)c1C2=O)C[C@@](O)(C(=O)CO)C[C@@H]3O[C@H]1C[C@H](N)[C@H](O)[C@H](C)O1 [Doxorubicin, reference compound]", "IC50", 790),
]

====

Tested on: A2058 (BRAF-V600E heterozygous mutant)
Test: RRA cytotoxicity, A2058
Format: cell-based
Conditions: Homo sapiens; A2058, compounds
The entries below are paired with their reported IC50.
ASSAY METRIC: IC50 (µM)

# COMPOUND, ASSAY METRIC, MEAS VALUE
records = [
    ("C[C@@H]1CC[C@@]2(OC1)O[C@H]1C[C@H]3[C@@H]4CC=C5C[C@@H](O)CC[C@]5(C)[C@H]4CC[C@]3(C)[C@H]1[C@@H]2C [Compound 5, diosgenin]", "IC50", 27.1),
    ("C[C@@H]1CC[C@@]2(OC1)O[C@H]1C[C@H]3[C@@H]4CC=C5C[C@@H](O[C@@H]6O[C@H](CO)[C@@H](O)[C@H](O)[C@H]6O)CC[C@]5(C)[C@H]4CC[C@]3(C)[C@H]1[C@@H]2C [Compound 6, diosgenin-3-O-β-D-glucopyranoside]", "IC50", 38.9),
    ("COc1cccc2c1C(=O)c1c(O)c3c(c(O)c1C2=O)C[C@@](O)(C(=O)CO)C[C@@H]3O[C@H]1C[C@H](N)[C@H](O)[C@H](C)O1 [Doxorubicin, reference compound]", "IC50", 0.29),
]

====

System: CCRF-CEM leukemia cells
Experiment: Resazurin reduction assay (RRA) cytotoxicity, CCRF-CEM
Type: cell-based
Conditions: Homo sapiens, doxorubicin
pIC50: −log10 of the molar value.

# MOLECULE, pIC50
data = [
    ("COc1cccc2c1C(=O)c1c(O)c3c(c(O)c1C2=O)C[C@@](O)(C(=O)CO)C[C@@H]3O[C@H]1C[C@H](N)[C@H](O)[C@H](C)O1 [Doxorubicin, reference compound]", 7.70),
]
